Record: compiled IC50 on IRAK4 (Homo sapiens (Human)) from multiple reports.

compound	assayValue
O=C(CCc1cn(-c2ccncc2)c(NC(=O)c2cccc(-c3cn[nH]c3)c2)n1)Nc1ccccc1	> 100 nM
CNC(=O)Cc1cn(-c2ccccc2)c(NC(=O)c2cccc(-c3ccncc3)c2)n1	> 100 nM
FC(F)(F)c1ncc(-c2ccc3ncnc(N[C@H]4CC[C@@H](N5CCOCC5)CC4)c3c2)cn1	169 nM

Give IC50 (IRAK4 (Homo sapiens (Human))) of the following compound: CC(O)CNc1c(C(=O)NC[C@@H](F)C(C)(C)O)cnc2ccc(-c3cncs3)cc12 (some centres unmarked)
116 nM

Entry Cn1cc(-c2cccc(-c3ncc(-c4cnn(C)c4)c(NCCCO)n3)c2)cn1 , system IRAK4 (Homo sapiens (Human)): what IC50 was measured?
100 to 1000 nM

* * *

Collected from the literature: IC50 of various compounds toward IRAK4 (Homo sapiens (Human)).

Known results for compounds:
compound	targetOrTestSystem	assayValue
Cn1cc(-c2cccc(-c3ncc(-c4cnn(C)c4)c(NCC(O)C(F)(F)F)n3)c2)cn1 (centres unmarked)	IRAK4 (Homo sapiens (Human))	< 100 nM
CN(C)[C@H]1CC[C@H](Oc2ncnc3sc4c(c23)C[C@H](CCO)CC4)CC1	IRAK4 (Homo sapiens (Human))	< 5000 nM
COCCOc1nc(Nc2cc(C)ns2)nc2ccn(-c3cnn(C)c3)c12	IRAK4 (Homo sapiens (Human))	≤ 100 nM
CNC(C)c1cccc(-c2ccc3cnn(-c4cccc(C(F)(F)F)n4)c3c2)n1 (single isomer, unassigned)	IRAK4 (Homo sapiens (Human))	< 100 nM
Cn1cc(-n2ccc3nc(Nc4ccc(C#N)s4)nc(O[C@H]4CCOC4)c32)cn1	IRAK4 (Homo sapiens (Human))	100 to 1000 nM

Please report the recorded IC50 for CNC(=O)CCCc1cn(C2CCCCC2)c(NC(=O)c2cccc(-c3cn[nH]c3)c2)n1 .
< 50 nM

# query: IC50 of entry Cn1cc(-c2cccc(-c3ncc(-c4cnn(C)c4)c(NCC(F)(F)F)n3)c2)cn1
< 100 nM

Recorded IC50 of NC(=O)C[C@H]1CCc2sc3ncnc(N[C@H]4CC[C@H](N5CCOCC5)CC4)c3c21 , please.
< 5000 nM

* * *

Record: compiled pIC50 on IRAK4 (Homo sapiens (Human), UniProt Q9NWZ3) from multiple reports.
pIC50: −log10 of the molar value.

// known answers, use as guide
compound	pIC50
O=C(CCc1cn(-c2ccccc2)c(NC(=O)c2cccc(-c3cn[nH]c3)c2)n1)NN1CCCCC1	7.00 to 7.30
CCc1nc2c(N[C@H]3CC[C@H](N4CCOCC4)CC3)nc(Nc3cnn(C(C)C)c3)nc2s1	≥ 6.00

Kindly state the measured pIC50 obtained for Cn1cc(NC(=O)c2ccc3cnc(N[C@@H]4CCCC[C@@H]4N)nn23)c(C(N)=O)n1 with IRAK4 (Homo sapiens (Human), UniProt Q9NWZ3).
9.15

Observed pIC50 on IRAK4 (Homo sapiens (Human), UniProt Q9NWZ3) for CC(C)(O)[C@H](F)CNC(=O)c1cnc(-c2cnc3cc(Cl)cnn23)cc1NC1CCC1 , please.
8.70

Item Clc1ccc2ncnc(N[C@H]3CC[C@H](N4CCOCC4)CC3)c2c1 with IRAK4 (Homo sapiens (Human), UniProt Q9NWZ3) - pIC50?
≥ 5.30

For the record COC(=O)NC[C@H]1C[C@H](Nc2cc(-c3ccc4cc(C#N)cnn34)ncc2-c2cn([C@H]3CC[C@H](NC(=O)C4CC4)CC3)nn2)C1 , what value of pIC50 is listed for IRAK4 (Homo sapiens (Human), UniProt Q9NWZ3)?
> 9.00

API: value(readout= pIC50, system= IRAK4 (Homo sapiens (Human), UniProt Q9NWZ3), query= CC(C)c1cccc(-n2ncc3ccc(-c4cccc(C(C)N)n4)cc32)n1 (centres unmarked) )
> 7.00

API: value(readout= pIC50, system= IRAK4 (Homo sapiens (Human), UniProt Q9NWZ3), query= C=CC(=O)N1CCC[C@H](c2nc(-c3ccc(NC(=O)c4cccc(-c5ccn[nH]5)n4)c(OC)c3)no2)C1 )
6.69

State its pIC50 on IRAK4 (Homo sapiens (Human), UniProt Q9NWZ3): CC(C)Oc1cc2nc([C@@]34CC[C@@](C)(C3)OC4)cn2cc1C(=O)Nc1cccn([C@H]2C[C@@H]2C)c1=O (single isomer, unassigned)
9.15

Find the measured pIC50: item Cn1cc([C@H]2CC[C@H](Nc3cc(-c4ccc5cc(C#N)cnn45)ncc3C(=O)NC[C@@H](F)C(C)(C)O)CC2)nn1 , target or system IRAK4 (Homo sapiens (Human), UniProt Q9NWZ3).
> 9.00

Fill in the recorded pIC50 for this compound, with IRAK4 (Homo sapiens (Human), UniProt Q9NWZ3) as test system: C[C@H](N)c1cccc(-c2cc(C3=NCCO3)c3cnn(-c4cccc(CO)n4)c3c2)n1
> 7.00
